Target: Human thrombin (Homo sapiens (Human))
Experiment: Thrombin protease activity inhibition assay (chromogenic substrate S-2238)
Type: biochemical
Details: 3 nM thrombin, 125 μM S-2238, 10 min pre-incubation, RT
Method: The thrombin activity reported herein (e.g., Table A) was obtained as follows. […] Thrombin was assayed in buffer containing 0.05 M Tris (pH 7.4), 0.015 M NaCl and 0.01% PEG-8000. The final concentration of enzyme used was 3 nM thrombin. […] Inhibitor IC50 values were determined by adding test compound as ten point, three-fold serial dilutions in buffer solution, as known in the art. The plate was read at 10 minutes after substrate addition. […]
Each item that follows carries a reported IC50.

Previously resolved entries follow.
[[record]]
smilestext = "Nc1cc(-c2ccc[nH]c2=O)nn1C(=O)c1ccco1"
testvalue = "1000 to 10000 nM"

[[record]]
smilestext = "COc1ccccc1C(=O)n1nc(-c2cccn(Cc3ncccn3)c2=O)cc1NCc1ccc(Cl)s1"
testvalue = "< 100 nM"

[[record]]
smilestext = "COc1ccccc1C(=O)n1nc(-c2cccn(Cc3cccc(Cl)c3)c2=O)cc1NCc1ccc(Cl)s1"
testvalue = "< 100 nM"


Quick check: IC50 of `O=C(c1ccccc1)n1nc(-c2cccn(Cc3ccccc3)c2=O)cc1NCc1ccc(Cl)s1` ?
< 100 nM

Quick check: IC50 of `O=C(c1ccccc1)n1nc(-c2ccc[nH]c2=O)cc1NCc1ccc(Cl)s1` ?
< 100 nM

Quick check: IC50 of `Cn1cccc(-c2cc(NCc3ccc(Cl)s3)n(C(=O)c3ccc(C(C)(C)C)cc3)n2)c1=O` ?
< 100 nM

Quick check: IC50 of `Cn1cccc(-c2cc(NCc3ccc(Cl)s3)n(C(=O)C3(C)COC3)n2)c1=O` ?
100 to 1000 nM

The reported measurements were obtained from patent US9687479B2.
